These measurements were taken from ChEMBL document CHEMBL4270593.

Assay overview: Inhibition of class 1 HDAC in human U87 cells assessed as levels of histone H3 acetylation at lysine 9/14 at 5 uM after 30 hrs by Western blot analysis relative to control
Condition set: u87, 30 h
Measurement kind: FC
Answers are plain numbers.

>>> numeric_value("CN1CCC2(CC1)CN(Cc1ccc(C(=O)NO)cc1)c1ccccc12")
1.6
>>> numeric_value("O=C(NO)c1ccc(CN2CC3(CCCCC3)c3ccccc32)cc1")
2.21

# next compound below
Query: FC for `CC(C)(C)OC(=O)N1CCC2(CC1)CN(Cc1ccc(C(=O)NO)cc1)c1ccccc12` ?
Response: 2.12

====

Study target: Histone deacetylase 8 (Homo sapiens, UniProt Q9BY41)
Sequence (Q9BY41 whole entry): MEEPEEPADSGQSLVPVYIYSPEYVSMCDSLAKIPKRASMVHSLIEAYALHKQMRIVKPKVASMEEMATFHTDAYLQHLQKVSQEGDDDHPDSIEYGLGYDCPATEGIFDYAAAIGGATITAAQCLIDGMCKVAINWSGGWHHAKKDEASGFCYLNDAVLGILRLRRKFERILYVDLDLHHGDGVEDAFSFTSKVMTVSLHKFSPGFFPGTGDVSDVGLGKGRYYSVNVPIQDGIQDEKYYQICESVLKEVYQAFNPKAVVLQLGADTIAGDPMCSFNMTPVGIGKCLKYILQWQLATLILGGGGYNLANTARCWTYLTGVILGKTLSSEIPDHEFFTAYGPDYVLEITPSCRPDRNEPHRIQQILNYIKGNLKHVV
Assay overview: Inhibition of human recombinant HDAC8 using fluor de Lys(R) as substrate after 90 mins by fluorescence-based assay
Measurement kind: pIC50
Answers are plain numbers, as −log10 of the molar value.

>>> numeric_value("O=C(NO)c1ccc(CN2CC3(CCCCC3)c3ccccc32)cc1")
6.60
>>> numeric_value("CC(C)(C)OC(=O)N1CCC2(CC1)CN(Cc1ccc(C(=O)NO)cc1)c1ccccc12")
5.80

Query: pIC50 for `CC(C)(C)OC(=O)N1CCC2(CC1)CN(Cc1ccc(C(=O)NO)s1)c1ccccc12` ?
Response: 5.87

====

Give IC50 for every item shown.
Study target: Histone deacetylase 1 (Homo sapiens)
Sequence (Q13547 whole entry): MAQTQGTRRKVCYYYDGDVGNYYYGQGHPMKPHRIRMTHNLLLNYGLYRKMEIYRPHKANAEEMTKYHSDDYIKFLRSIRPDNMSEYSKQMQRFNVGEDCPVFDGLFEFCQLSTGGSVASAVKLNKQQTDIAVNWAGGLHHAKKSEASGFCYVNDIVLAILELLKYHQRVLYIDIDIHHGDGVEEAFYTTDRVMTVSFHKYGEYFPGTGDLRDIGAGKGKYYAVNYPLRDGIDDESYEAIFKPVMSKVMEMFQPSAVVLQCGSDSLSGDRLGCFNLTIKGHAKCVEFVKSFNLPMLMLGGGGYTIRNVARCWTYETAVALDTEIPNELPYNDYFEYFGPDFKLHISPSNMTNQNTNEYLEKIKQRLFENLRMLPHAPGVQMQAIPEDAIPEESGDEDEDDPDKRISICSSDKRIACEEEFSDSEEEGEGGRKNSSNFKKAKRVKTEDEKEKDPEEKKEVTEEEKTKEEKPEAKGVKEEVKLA
Assay overview: Inhibition of human recombinant C-terminal His/FLAG-tagged full length HDAC1 expressed in insect SF9 cells using fluorogenic ZMAL as substrate after 90 mins by fluorescence-based assay
One number for each entry, in µM.

Previously resolved entries follow.
>>> numeric_value("CC(C)(C)OC(=O)N1CCC2(CC1)CN(Cc1ccc(C(=O)NO)s1)c1ccccc12")
10.9
>>> numeric_value("CN1CCC2(CC1)CN(Cc1ccc(C(=O)NO)s1)c1ccccc12")
11.4
>>> numeric_value("CC(C)(C)C(=O)N1CCC2(CC1)CN(Cc1ccc(C(=O)NO)cc1)c1ccccc12")
4.47
>>> numeric_value("CC(C)(C)OC(=O)N1CCC2(CC1)CN(Cc1ccc(C(=O)NO)cc1)c1ccccc12")
4
>>> numeric_value("CN1CCC2(CC1)CN(Cc1ccc(C(=O)NO)cc1)c1ccccc12")
11.7
>>> numeric_value("CC(=O)N1CCC2(CC1)CN(Cc1ccc(C(=O)NO)cc1)c1ccccc12")
7.29

Query: IC50 for `O=C(NO)c1ccc(CN2CC3(CCCCC3)c3ccccc32)cc1` ?
Response: 6.79

====

Assay overview: Inhibition of class 1 HDAC in human U87 cells assessed as levels of histone H3 acetylation at lysine 9/14 at 1 uM after 30 hrs by Western blot analysis relative to control
Condition set: u87, 30 h
Measurement kind: FC
Answers are plain numbers.

Previously resolved entries follow.
>>> numeric_value("CN1CCC2(CC1)CN(Cc1ccc(C(=O)NO)cc1)c1ccccc12")
1.83
>>> numeric_value("O=C(NO)c1ccc(CN2CC3(CCCCC3)c3ccccc32)cc1")
1.77

# next compound below
Query: FC for `CC(C)(C)OC(=O)N1CCC2(CC1)CN(Cc1ccc(C(=O)NO)cc1)c1ccccc12` ?
Response: 2.74

====

Assay overview: Inhibition of class 1 HDAC in human NB4 cells assessed as levels of histone H3 acetylation at lysine 9/14 at 1 uM after 30 hrs by Western blot analysis relative to control
Give FC for every item shown.

Hi team, please reply with FC for each item in this list.
1. CN1CCC2(CC1)CN(Cc1ccc(C(=O)NO)cc1)c1ccccc12
2. O=C(NO)c1ccc(CN2CC3(CCCCC3)c3ccccc32)cc1
3. CN1CCc2c(c3ccccc3n2Cc2ccc(C(=O)NO)cc2)C1
4. CC(C)(C)OC(=O)N1CCC2(CC1)CN(Cc1ccc(C(=O)NO)cc1)c1ccccc12

Response:
1.02
2.27
0.84
1.12

====

Species on record: Homo sapiens
Assay overview: Selectivity ratio of IC50 for human recombinant C-terminal His/FLAG-tagged full length HDAC1 to IC50 for N-terminal GST-tagged full length HDAC6
Measurement kind: Ratio IC50

Hi team, please reply with Ratio IC50 for each item in this list.
1. O=C(CCCCCCNC(=O)c1cnc(N(c2ccccc2)c2ccccc2)nc1)NO
2. CN1CCC2(CC1)CN(Cc1ccc(C(=O)NO)s1)c1ccccc12

Response:
1: 10; 2: 6

Hi team, please reply with Ratio IC50 for each item in this list.
1. CC(C)(C)C(=O)N1CCC2(CC1)CN(Cc1ccc(C(=O)NO)cc1)c1ccccc12
2. O=C(NO)c1ccc(CN2CC3(CCCCC3)c3ccccc32)cc1
3. CN1CCC2(CC1)CN(Cc1ccc(C(=O)NO)cc1)c1ccccc12
4. CC(C)(C)OC(=O)N1CCC2(CC1)CN(Cc1ccc(C(=O)NO)s1)c1ccccc12
5. CC(=O)N1CCC2(CC1)CN(Cc1ccc(C(=O)NO)cc1)c1ccccc12

Response:
1: 74; 2: 166; 3: 57; 4: 15; 5: 116

Hi team, please reply with Ratio IC50 for each item in this list.
1. O=C(CCCCCCNC(=O)c1cnc(N(c2ccccc2)c2ccccc2Cl)nc1)NO
2. CC(C)(C)OC(=O)N1CCC2(CC1)CN(Cc1ccc(C(=O)NO)cc1)c1ccccc12

Response:
[10, 95]

====

Give IC50 for every item shown.
Study target: UniProt Q9UBN7
Sequence (Q9UBN7 whole entry): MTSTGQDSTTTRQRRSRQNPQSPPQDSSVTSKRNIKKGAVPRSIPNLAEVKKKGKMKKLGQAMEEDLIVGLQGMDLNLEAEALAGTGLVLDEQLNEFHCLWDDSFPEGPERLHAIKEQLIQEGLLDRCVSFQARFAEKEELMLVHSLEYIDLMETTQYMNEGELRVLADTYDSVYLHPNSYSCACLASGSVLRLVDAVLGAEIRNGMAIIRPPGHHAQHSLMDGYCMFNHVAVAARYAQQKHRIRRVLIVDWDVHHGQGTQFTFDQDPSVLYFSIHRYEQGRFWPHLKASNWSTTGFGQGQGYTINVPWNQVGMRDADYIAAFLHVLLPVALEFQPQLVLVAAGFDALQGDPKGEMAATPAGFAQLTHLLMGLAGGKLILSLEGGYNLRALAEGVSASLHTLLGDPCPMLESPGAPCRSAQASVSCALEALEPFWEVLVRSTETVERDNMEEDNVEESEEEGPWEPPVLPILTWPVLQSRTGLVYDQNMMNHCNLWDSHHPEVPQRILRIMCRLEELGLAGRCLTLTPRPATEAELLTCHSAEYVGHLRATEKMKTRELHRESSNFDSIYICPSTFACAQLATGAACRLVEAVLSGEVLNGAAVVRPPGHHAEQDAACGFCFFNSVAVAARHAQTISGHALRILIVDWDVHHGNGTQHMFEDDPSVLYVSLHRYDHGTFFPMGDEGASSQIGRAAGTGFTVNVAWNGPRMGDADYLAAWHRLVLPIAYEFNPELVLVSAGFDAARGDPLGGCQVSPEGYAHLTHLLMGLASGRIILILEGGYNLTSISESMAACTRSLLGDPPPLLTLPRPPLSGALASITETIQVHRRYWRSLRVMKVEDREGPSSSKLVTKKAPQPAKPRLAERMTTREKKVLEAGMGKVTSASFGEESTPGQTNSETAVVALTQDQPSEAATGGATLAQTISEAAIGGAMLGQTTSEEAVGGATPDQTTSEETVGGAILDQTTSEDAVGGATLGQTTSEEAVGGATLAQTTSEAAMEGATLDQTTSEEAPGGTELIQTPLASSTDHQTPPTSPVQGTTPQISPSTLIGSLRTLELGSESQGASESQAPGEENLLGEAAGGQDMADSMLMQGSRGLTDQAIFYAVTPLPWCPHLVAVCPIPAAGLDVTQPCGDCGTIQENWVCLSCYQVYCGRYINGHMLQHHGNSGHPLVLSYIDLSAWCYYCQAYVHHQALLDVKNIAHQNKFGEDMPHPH
Assay overview: Inhibition of human recombinant N-terminal GST-tagged full length HDAC6 expressed in insect SF9 cells using fluorogenic ZMAL as substrate after 90 mins by fluorescence-based assay
Give bare numbers, in µM.

Previously resolved entries follow.
>>> numeric_value("CN1CCC2(CC1)CN(Cc1ccc(C(=O)NO)cc1)c1ccccc12")
0.204
>>> numeric_value("CC(C)(C)OC(=O)N1CCC2(CC1)CN(Cc1ccc(C(=O)NO)s1)c1ccccc12")
0.719
>>> numeric_value("O=C(NO)c1ccc(CN2CC3(CCCCC3)c3ccccc32)cc1")
0.0409
>>> numeric_value("CC(C)(C)OC(=O)N1CCC2(CC1)CN(Cc1ccc(C(=O)NO)cc1)c1ccccc12")
0.0419
>>> numeric_value("CC(=O)N1CCC2(CC1)CN(Cc1ccc(C(=O)NO)cc1)c1ccccc12")
0.0625

Hi team, please reply with IC50 for each item in this list.
1. CN1CCC2(CC1)CN(Cc1ccc(C(=O)NO)s1)c1ccccc12
2. CC(C)(C)C(=O)N1CCC2(CC1)CN(Cc1ccc(C(=O)NO)cc1)c1ccccc12

Response:
1: 1.78; 2: 0.0601
